Target: T1, recombinant hCD127 (Sino Biologicals, reference 10975-H08H) (human, UniProt P16871 21-239)
T1 construct: Bought recombinant protein; In the Blitz assay the protein is said to be captured by an Fc fragment, and a second catalogue number (11612-H08H) is printed; also called human CD127 recombinant protein; recombinant human CD127
T1 chain: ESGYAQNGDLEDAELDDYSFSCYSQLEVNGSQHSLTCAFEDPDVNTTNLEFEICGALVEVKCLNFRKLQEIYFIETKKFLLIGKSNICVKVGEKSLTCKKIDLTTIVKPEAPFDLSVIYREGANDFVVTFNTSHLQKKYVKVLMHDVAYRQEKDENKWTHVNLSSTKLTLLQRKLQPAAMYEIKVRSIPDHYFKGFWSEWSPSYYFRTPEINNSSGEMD
Test: ELISA, hCD127 immobilized on plastic at 1 µg/ml (given as ED50)
measurementKind: EC50 (µg/mL)
Give the value, in units of µg/mL, as a plain number.

Known results for binders:
N13B2-h3 (antibody, V domains shown, also called humanized N13B2 of WO 2015/189302) VH: QVQLVESGGGLVKPGGSLRLSCAVSGFTLSDYYMAWIRQAPGKGLEWVSTISASGLRTYYPDSVKGRFTISRDNAKNSLYLQMNSLRAEDTAVYYCARPLSAHYGFNYFDYWGQGTLVTVSS VL: EIVMTQSPATLSVSPGERATLSCRTSEDIYQGLAWYQQKPGQAPRLLIYSANTLHIGIPARFSGSGSGTEFTLTISSLQSEDFAVYYCQQYYDYPLAFGGGTKVEIKR :: 0.0168
N13B2-hVL6 (antibody, V domains shown, also called N13B2-h3VL6; N13B2-VL6-V48L-F87Y) VH: QVQLVESGGGLVKPGGSLRLSCAVSGFTLSDYYMAWIRQAPGKGLEWVSTISASGLRTYYPDSVKGRFTISRDNAKNSLYLQMNSLRAEDTAVYYCARPLSAHYGFNYFDYWGQGTLVTVSS VL: DIQMTQSPSSLSASVGDRVTITCRTSEDIYQGLAWYQQKPGKAPKLLLYSANTLHIGVPSRFSGSGSGTDYTLTISSLQPEDFATYYCQQYYDYPLAFGGGTKVEIKR :: 0.0095
N13B2-hVL5 (antibody, V domains shown, also called N13B2-VL5-F87Y) VH: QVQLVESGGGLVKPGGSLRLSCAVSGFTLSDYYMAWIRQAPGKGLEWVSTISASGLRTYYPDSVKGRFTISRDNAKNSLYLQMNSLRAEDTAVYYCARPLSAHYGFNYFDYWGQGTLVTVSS VL: DIQMTQSPSSLSASVGDRVTITCRTSEDIYQGLAWYQQKPGKAPKLLVYSANTLHIGVPSRFSGSGSGTDYTLTISSLQPEDFATYYCQQYYDYPLAFGGGTKVEIKR :: 0.0148

Now consider the entry below.
Query block: EC50 lookup needed for N13B2-hVL4 (antibody, V domains shown, also called N13B2-VL4-V48L) VH: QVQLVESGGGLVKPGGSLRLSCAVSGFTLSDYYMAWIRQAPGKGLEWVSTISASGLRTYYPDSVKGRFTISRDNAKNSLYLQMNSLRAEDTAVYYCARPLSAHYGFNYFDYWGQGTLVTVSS VL: DIQMTQSPSSLSASVGDRVTITCRTSEDIYQGLAWYQQKPGKAPKLLLYSANTLHIGVPSRFSGSGSGTDYTLTISSLQPEDFATYFCQQYYDYPLAFGGGTKVEIKR , thanks.
Result block: 0.0126
